Molecular target: human dopamine D2L receptor (Homo sapiens, UniProt P14416)
Sequence (P14416 whole entry): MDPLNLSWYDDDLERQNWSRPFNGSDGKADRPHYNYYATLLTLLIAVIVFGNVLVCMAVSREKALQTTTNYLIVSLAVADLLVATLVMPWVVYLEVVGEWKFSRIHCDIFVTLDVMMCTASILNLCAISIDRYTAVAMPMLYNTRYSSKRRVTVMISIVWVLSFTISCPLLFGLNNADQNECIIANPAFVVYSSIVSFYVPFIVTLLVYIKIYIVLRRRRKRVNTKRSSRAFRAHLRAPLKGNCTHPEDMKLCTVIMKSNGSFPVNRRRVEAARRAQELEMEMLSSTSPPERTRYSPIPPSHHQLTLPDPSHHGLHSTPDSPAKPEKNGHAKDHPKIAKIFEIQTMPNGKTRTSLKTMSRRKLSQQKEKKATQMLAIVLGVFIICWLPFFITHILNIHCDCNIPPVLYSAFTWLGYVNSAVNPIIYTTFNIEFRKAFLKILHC
Experiment: Dopamine D2L radioligand binding ([3H]Spiperone)
Conditions: percent inhibition of specific binding; compound at 1 μM; read-out: Inhibition of ligand binding, Dopamine D2L
quantity_kind: inhibition at 1 µM

{"columns": ["molecule", "inhibition at 1 µM"],
 "data": [
  ["CN1CCc2c(c3cc(Cl)ccc3n2C/C(=C/CCO)c2ccc(F)cc2)C1", "34%"],
  ["CCCCC(O)(Cn1c2c(c3cc(Cl)ccc31)CN(C)CC2)c1ccc(F)cc1 (stereo not drawn)", "30%"],
  ["Cc1ccc2c(c1)c1c(n2CC(O)c2ccc(C)nc2)CCN(C)C1 (stereo not drawn)", "8%"],
  ["C/C(=C\\n1c2c(c3ccc(C(C)C)cc31)CN(C)CC2)c1ccncc1", "90%"]
]}

For the molecule shown here, COc1ccc(/C(C)=C/n2c3c(c4cc(C)ccc42)CN(C)CC3)cc1F , give the reported inhibition at 1 µM.
83%

For the molecule shown here, CCN1CCc2c(c3ccccc3n2/C=C(\C)c2ccncc2)C1 , give the reported inhibition at 1 µM.
94%

For the molecule shown here, C/C(=C\n1c2c(c3cc(C(C)C)ccc31)CN(C)CC2)c1ccncc1 , give the reported inhibition at 1 µM.
85%

For the molecule shown here, CN1CCc2c(c3cc(Cl)ccc3n2CC(O)(c2ccc(F)cc2)C2CC2)C1 (stereo not drawn) , give the reported inhibition at 1 µM.
39%

For the molecule shown here, Cc1ccc(C(C)(O)Cn2c3c(c4cc(Cl)ccc42)CN(C)CC3)cn1 (stereo not drawn) , give the reported inhibition at 1 µM.
7%
